Assay: Toxicity test (LD50, Miller and Tainter)
Conditions: mouse, in vivo, ip; intraperitoneal, mice; read-out: DL50 I.P.
Counter-ions that a name gives are not always drawn.
Binarize LD50 at 500 mg/kg; below is MET, at or above is NOT MET.

>  <molecule>
CN(C(=O)CNC1CCCCC1)c1ccc(Cl)cc1C(=O)c1ccccc1 [Example 11, hydrochloride]

>  <cat>
MET

$$$$
>  <molecule>
CN(C(=O)CN1CCOCC1)c1ccc(Cl)cc1C(=O)c1ccccc1 [Example 18, hydrochloride]

>  <cat>
NOT MET

$$$$
>  <molecule>
C#CC(CC)(CC)NCC(=O)N(C)c1ccc(Cl)cc1C(=O)c1ccccc1 [Example 8, hydrochloride]

>  <cat>
MET

$$$$
>  <molecule>
CN(CCO)CC(=O)N(C)c1ccc(Cl)cc1C(=O)c1ccccc1 [Example 14]

>  <cat>
MET

$$$$
>  <molecule>
CN(C(=O)CN(C)C1CCCCC1)c1ccc(Cl)cc1C(=O)c1ccccc1 [Example 20, hydrochloride]

>  <cat>
NOT MET

$$$$
>  <molecule>
CN(C(=O)CN(CCO)CCO)c1ccc(Cl)cc1C(=O)c1ccccc1 [Example 16, hydrochloride]

>  <cat>
NOT MET

$$$$
